# target-under-test: TAS2R10 (Homo sapiens, UniProt Q9NYW0)
# Sequence (Q9NYW0 whole entry): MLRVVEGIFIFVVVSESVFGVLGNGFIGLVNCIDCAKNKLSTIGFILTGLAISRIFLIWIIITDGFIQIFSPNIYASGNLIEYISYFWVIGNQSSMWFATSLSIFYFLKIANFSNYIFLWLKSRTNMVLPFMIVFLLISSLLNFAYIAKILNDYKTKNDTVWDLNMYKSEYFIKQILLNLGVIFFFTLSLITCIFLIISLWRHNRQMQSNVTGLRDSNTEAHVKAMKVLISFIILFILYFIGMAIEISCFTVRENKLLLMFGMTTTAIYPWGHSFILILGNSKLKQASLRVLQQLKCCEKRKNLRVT
# experiment-summary: Calcium mobilization assay, HEK293T-Gα16gust44 cells expressing TAS2R10
# condition-parameters: maximal concentration tested: sucralose 100 mM, neotame 30 µM, Ace-K 300 mM, RebA 4 mM, RebM 4 mM, mogroside V 5 mM, erythritol 200 mM, D-allulose 500 mM, thaumatin 100 mM
value-type: Response of TAS2R10

compound: C[C@H](CC[C@@H](O[C@@H]1O[C@H](CO[C@@H]2O[C@H](CO)[C@@H](O)[C@H](O)[C@H]2O)[C@@H](O)[C@H](O)[C@H]1O[C@@H]1O[C@H](CO)[C@@H](O)[C@H](O)[C@H]1O)C(C)(C)O)[C@H]1CC[C@@]2(C)[C@@H]3CC=C4[C@@H](CC[C@H](O[C@@H]5O[C@H](CO[C@@H]6O[C@H](CO)[C@@H](O)[C@H](O)[C@H]6O)[C@@H](O)[C@H](O)[C@H]5O)C4(C)C)[C@]3(C)[C@H](O)C[C@]12C [Mogroside V, mogroside V]
recorded-result: −
